Target: H. pylori MTAN (Helicobacter pylori)
Construct: His6 (N); made in house; host or cells: E. coli BL21 (DE3)
Sequence (Q9ZMY2 1-230): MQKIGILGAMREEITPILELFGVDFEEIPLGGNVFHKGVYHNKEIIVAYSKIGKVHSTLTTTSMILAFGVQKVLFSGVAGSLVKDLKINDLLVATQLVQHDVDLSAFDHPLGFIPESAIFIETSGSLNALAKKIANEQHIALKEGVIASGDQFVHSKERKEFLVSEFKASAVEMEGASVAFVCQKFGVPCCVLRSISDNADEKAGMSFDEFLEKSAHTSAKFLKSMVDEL
Experiment: Ki determination: inhibition of recombinant HpMTAN, xanthine oxidase coupled assay, 5′-methylthioadenosine as substrate
Format: biochemical
Conditions: Table 4, Immucillin-A series; read-out: Inhibition of H. pylori MTAN Ki*
pKi: −log10 of the molar value.
endpointName: pKi

[I] CCCCSC[C@H]1NC(c2c[nH]c3c(N)ncnc23)[C@H](O)[C@@H]1O (some centres unmarked)
[II] CSC[C@H]1NC(c2c[nH]c3c(N)ncnc23)[C@H](O)[C@@H]1O (some centres unmarked)
Pick one: I or II . Which has the bigger pKi number? Indicate which entry you chose by stating its label.
I

Origin of values: patent US11186575B2
